target: PARP2 (Homo sapiens (Human))
Sequence (Q9UGN5 whole entry): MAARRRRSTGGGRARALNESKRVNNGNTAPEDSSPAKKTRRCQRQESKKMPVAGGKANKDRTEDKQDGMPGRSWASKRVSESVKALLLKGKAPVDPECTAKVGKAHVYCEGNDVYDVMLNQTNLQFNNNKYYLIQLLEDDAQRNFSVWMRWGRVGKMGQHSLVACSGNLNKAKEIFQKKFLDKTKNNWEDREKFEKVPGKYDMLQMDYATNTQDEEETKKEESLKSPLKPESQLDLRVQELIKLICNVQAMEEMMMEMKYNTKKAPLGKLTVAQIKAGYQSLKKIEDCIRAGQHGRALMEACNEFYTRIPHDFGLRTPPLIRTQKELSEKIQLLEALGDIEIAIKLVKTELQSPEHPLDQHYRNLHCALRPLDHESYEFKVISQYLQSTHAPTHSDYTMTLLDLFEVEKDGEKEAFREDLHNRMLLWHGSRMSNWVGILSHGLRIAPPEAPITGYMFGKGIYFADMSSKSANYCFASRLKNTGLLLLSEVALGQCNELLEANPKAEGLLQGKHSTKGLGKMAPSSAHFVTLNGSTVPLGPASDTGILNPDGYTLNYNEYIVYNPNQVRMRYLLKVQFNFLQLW
observed_property: IC50

molecule | result
[2H]C([2H])([2H])NC(=O)c1ccc(C2=CCN(Cc3ccc4c([nH]c(=O)c5cccnc54)c3F)CC2)c(F)n1 | > 20 µM

Hello, I am looking for reported IC50 with PARP2 (Homo sapiens (Human)) for CNC(=O)c1ccc2c(n1)CC[C@H]1CN(Cc3c(F)cc4nc(C)c(=O)[nH]c4c3F)CCN21 [Trifluoroacetate of compound 19] . Could you help? > 50 µM

* * *

pIC50 by entry:
target: PARP1 (Homo sapiens (Human), UniProt P09874)
Sequence (P09874 whole entry): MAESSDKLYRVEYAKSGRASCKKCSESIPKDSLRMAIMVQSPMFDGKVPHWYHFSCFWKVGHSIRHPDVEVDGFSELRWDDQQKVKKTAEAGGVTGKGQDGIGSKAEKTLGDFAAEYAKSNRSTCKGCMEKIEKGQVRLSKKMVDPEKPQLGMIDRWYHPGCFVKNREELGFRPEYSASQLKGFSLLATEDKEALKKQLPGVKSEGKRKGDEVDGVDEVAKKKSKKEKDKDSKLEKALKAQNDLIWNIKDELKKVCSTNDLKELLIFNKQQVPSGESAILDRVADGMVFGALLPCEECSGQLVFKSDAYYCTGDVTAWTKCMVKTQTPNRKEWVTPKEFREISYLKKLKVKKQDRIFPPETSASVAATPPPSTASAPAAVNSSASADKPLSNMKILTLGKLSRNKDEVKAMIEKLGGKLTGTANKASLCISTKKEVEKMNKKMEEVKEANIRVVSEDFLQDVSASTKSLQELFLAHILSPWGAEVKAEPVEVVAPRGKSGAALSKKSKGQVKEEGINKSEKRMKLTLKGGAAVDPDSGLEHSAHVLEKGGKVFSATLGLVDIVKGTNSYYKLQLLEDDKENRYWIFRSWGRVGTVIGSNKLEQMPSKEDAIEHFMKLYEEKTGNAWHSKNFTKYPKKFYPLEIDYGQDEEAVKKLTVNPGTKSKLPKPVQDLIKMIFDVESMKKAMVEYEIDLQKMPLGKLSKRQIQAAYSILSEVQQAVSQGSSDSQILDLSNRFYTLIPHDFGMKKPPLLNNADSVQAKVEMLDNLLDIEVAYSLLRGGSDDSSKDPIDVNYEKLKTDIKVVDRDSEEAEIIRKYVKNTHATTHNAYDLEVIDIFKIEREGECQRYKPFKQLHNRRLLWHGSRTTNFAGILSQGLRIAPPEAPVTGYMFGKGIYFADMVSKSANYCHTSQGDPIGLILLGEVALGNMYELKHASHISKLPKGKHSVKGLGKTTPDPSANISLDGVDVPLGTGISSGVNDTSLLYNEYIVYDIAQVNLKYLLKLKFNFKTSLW
# reply with the number alone; pIC50 is -log10 of concentration in mol/L

compound | result_number
CNC(=O)c1ccc(N2CCN(Cc3ccc4c([nH]c(=O)c5cc(F)cnc54)c3F)CC2)c(Cl)n1 [Compound 50] | 8.10
CNC(=O)c1ccc2c(n1)CC[C@H]1CN(Cc3c(F)cc4nc(C)c(=O)[nH]c4c3F)CCN21 [Trifluoroacetate of compound 19] | 7.85

Consider the additional compound presented here.
Notebook entry, PARP1 (Homo sapiens (Human), UniProt P09874) assay: pIC50 of [2H]C([2H])([2H])NC(=O)c1ccc(C2=CCN(Cc3ccc4c([nH]c(=O)c5cccnc54)c3F)CC2)c(F)n1 [Compound 31] = ? 8.33

Data provenance: patent US20250295642A1
